Test system: PXR:RXRa (NR concentration 270 nM, RXRa partner concentration 90 nM)
ASSAY_DETAILS: PBM binding z-score (relative to random genomic background probes); higher = stronger binding; sequences stand for … in GC…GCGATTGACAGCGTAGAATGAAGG
As shown below, each of these sequences has a reported PBM binding z-score value.

SEQUENCE_INPUT | SUBJECT_OF_TEST | PBM binding z-score
AGAACGAGAGCACGCTGAGTTGATAGCAGAGTAG | PXR:RXRa (NR concentration 270 nM, RXRa partner concentration 90 nM) | -0.515
CGAACTAGGTCATCCAGGACAGTGAGTACATTGA | PXR:RXRa (NR concentration 270 nM, RXRa partner concentration 90 nM) | 2.8
ATCTCTAGGTAGAAGTTCAGTGAATCCCGAGGAT | PXR:RXRa (NR concentration 270 nM, RXRa partner concentration 90 nM) | 0.947
ACAGACAGGTGATAAAGGTAACTCAGGCTATCAT | PXR:RXRa (NR concentration 270 nM, RXRa partner concentration 90 nM) | -0.0528
ATCTCTGGGTAAAGTTCAGTGAAAGATCGATAGA | PXR:RXRa (NR concentration 270 nM, RXRa partner concentration 90 nM) | 2.12
CCTACTGGGCCAAGGTAATTGATCAGTCAAAGCA | PXR:RXRa (NR concentration 270 nM, RXRa partner concentration 90 nM) | -0.363
CGTCCAAGGTCATAGGAGGTCAGGGAAGACAGAT | PXR:RXRa (NR concentration 270 nM, RXRa partner concentration 90 nM) | 6.9
CCAGACAGGTGAGAATGTAACTCAGCCTCGATTA | PXR:RXRa (NR concentration 270 nM, RXRa partner concentration 90 nM) | -0.276
TATACAGGGTCAAAGACCAGAGTACGAATGTCGA | PXR:RXRa (NR concentration 270 nM, RXRa partner concentration 90 nM) | 3.65
ATCGAAAGGTCGTAGGTGAGTATACCCACCCGAA | PXR:RXRa (NR concentration 270 nM, RXRa partner concentration 90 nM) | 3.12
TCTTGTAGTTCAATAGAGGTTAAGAAAGTGCGCT | PXR:RXRa (NR concentration 270 nM, RXRa partner concentration 90 nM) | 4.2
CCTTACGGGTCACGAGGTGATAGCACGACGAGCG | PXR:RXRa (NR concentration 270 nM, RXRa partner concentration 90 nM) | 3.69

###

Tested on: LXRa:RXRa (NR concentration 270 nM, RXRa partner concentration 90 nM)
ASSAY_DETAILS: PBM binding z-score (relative to random genomic background probes); higher = stronger binding; sequences stand for … in GC…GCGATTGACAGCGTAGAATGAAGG
Think of 4 as a floor: if PBM binding z-score stands on it or above, it is yes (1); beneath it, no (0).

SEQUENCE_INPUT | ASSIGNED_LABEL
ATATGTAGGTTACATCCGGGTCATTCAAGCTATG | yes (1)
CCTTTCGGGTCACTGACAGGTTATAGCATTTGGA | yes (1)
TCGAGTAGGTTACCAATGGGGAATTCAGCTTTCT | no (0)
CGAACTAGGTCAAGGACTGTGAATCTCCGCACGC | no (0)
TCTAGTTGGTTAAAGGTCACACACTCGAAATGCG | yes (1)
CGTCCAAGGTCAATCCTAGGTCAGTGAAAGCATT | yes (1)

###

System: THRa homodimer (NR concentration 90 nM)
ASSAY_DETAILS: PBM binding z-score (relative to random genomic background probes); higher = stronger binding; sequences stand for … in GC…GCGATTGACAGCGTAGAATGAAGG
READOUT: PBM binding z-score

SEQUENCE_INPUT | READOUT | READING
CCTAGTAGTTGACCATAAGGGCAACCGAAGCTCG | PBM binding z-score | 1.16
GCATATAGGTAATACACGGTGAAAGTCCGATTGT | PBM binding z-score | -0.424
GTTCCAAGGTGAATAGGTCGTTGATGAGTAGGCG | PBM binding z-score | 0.975
TCTGGTAGGTCAACGATGGTCAGCTAATCTGCTA | PBM binding z-score | 0.7
ATACCAAGGTGATCGTGAGGTCGTTGACACTAAC | PBM binding z-score | 2.59
CGTCCAAGGTCAAAGGTCAGTGCAGAGATGACGG | PBM binding z-score | 3.26

###

System: LXRb:RXRa (NR concentration 270 nM, RXRa partner concentration 90 nM)
ASSAY_DETAILS: PBM binding z-score (relative to random genomic background probes); higher = stronger binding; sequences stand for … in GC…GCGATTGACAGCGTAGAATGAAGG
The following ranges of PBM binding z-score define the classes used here: band 1 (below 0.2), band 2 (0.2 to below 2), band 3 (2 or more)

SEQUENCE_INPUT | ASSIGNED_LABEL
TCTTGTAGATCTGCAGGTTAAGAAAGCTGGCCAA | band 2
TCTCGTAGATCAAAGGTTAAGAAAGCCGAAGCCT | band 2
TCTAGTTGGTCAAAGGTCACCCACTCGAAATGCG | band 3
TCTTGTAGATCAAGCAGGTTGAGAAAGCCTGAGT | band 1
TTACCAAGGTGAGCTGAGGTCGTAGATCCAACTC | band 2
CTACAAAGGTGAACAAGGTCGTTGATTACTATTC | band 3
CCGACTGGGGCAAGGCTACCATAACGCACAGCCA | band 1
CTCGAAAGGTCGTGCTCAGGGGAGTATACCAAAC | band 3
ATCTCTAGGTAACAACTTCAGTGAAAGAGAGGAC | band 2
TAGCCTTGGTCATTCAGGGGCCAGTATAGAAAGC | band 1
GCTGCTAGGTCAGGTTGGGCAGCTAACGGGTACG | band 1
TTACCAAGGTGATGGTCGTTGATCCCTCTGTAGA | band 2
GCTATTTGTTGAAAGGGCAACCGAATGATTCTCG | band 2
ATCTCTAGGTATAGTTCAGTGAAAGATCGATAGA | band 2
ACTATTAGTTGACTTAGGGCAACCTATACGACGC | band 2
TCTTGTAGATCAACAGGAGGTTTAGAAAGATCGA | band 1
ATATGTAGGTTAGCTGGGGGCATTCAGACTAGGC | band 3
CCTAGCAGGCCAGGGTCACGCAAGCATTTCGCTT | band 3
ACTTACGGGTCAACGAGGTTATAACACGCGTATA | band 3
ACAGACAGGTGAGGAAGGTAACTCAGGCTATCAT | band 1
ATCTCTAGGTAAGACTCAGTTCGGTGAAGAACGC | band 1
AGAATGAGGTTAACATCAGGGAAACAGAATACAT | band 3
CCTGCTAGGACATGGTCAGCTAATCTACAGTATG | band 1
ATCGAAAGGTCGTGAGGTGAGTATTCAGAAAGGC | band 3
CCTTACGCGTCAAGGTTATAGCACGGGTGGTACG | band 2
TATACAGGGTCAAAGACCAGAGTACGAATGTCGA | band 3

###

System: RARb homodimer (NR concentration 270 nM)
ASSAY_DETAILS: PBM binding z-score (relative to random genomic background probes); higher = stronger binding; sequences stand for … in GC…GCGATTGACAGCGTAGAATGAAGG

SEQUENCE_INPUT | PBM binding z-score
CCTGCTAGGTCAATGATCAGCTAAAGCAGCTCGC | 2.32
AGTCAAAGTACACTAGGTAACGTAAGATTCAGCT | 0.288
CCTACTGGGCCCAAGGTCATTGATTCCAATGCTC | 3.52
CGTCCAAGGTCAATGCTACGTCAGTGAAAGCATT | 4.04
CGTCCAAGGTCATAGGTCAGTGAAGAGATGACGG | 4.84
ACTATTAGTTGACTTAGGGCAACCAATACGACGC | 1.15
GCAACTGGGGCAAAGCAGGTTACCATAAGGTTGG | 1.27
AATACAGGGCCATCGTAGGCCAGAGTACGCACAG | 0.468
GCTCGGAGGACAAGGTCGGAGCTTTGTCCGTAGA | 0.998
GCTAGTTGGTCAGTAAAAGATCACACACCGGTCG | 0.519
TCTGCTAGGTCAATTGGTCAGCTAACGAGCTGCC | 2.93
TCATAAAGGTAATACAGGTGAAAGTCGGCATCTA | 1.09
CCTTGCGGGTCACGAGGTTATAGCACGACGAGCG | 3.64
CGTACTGGGCCACGAAAGGTCATTGATTCAGTGA | 4.58
GCAGACAGGTGAATCGCAGGTAACTCAGGGTGGC | 0.0663
CCTAATGGGCCATCAGGTCATTGATATCAACGTT | 2.76
TCATATAGGTAAAGGTGAAAGTAGAACGATATGA | 1.35
TCTAGTTGGTCAAAGGTCACACACTCGAAATGCG | 5.02
CCTACTGGGCCATTCACAGGTCATTGATCATATG | 2.72
TTACCAAGGTGAAGCTCGTTGATCCCTCTGTAGA | 0.199
TCGAGTAGGTTCGTCGGGGCATTCAGCCAACATA | 0.49
CGTCCAAGGTCAGCAGGTCAGTGATAGCGACGTG | 5.02
CTTGCTAGGTCAATGGTCAGCTAAAGCAGCTCGC | 2.82
GCATATAGGTAATACCAGGTGAAAGTCCGATTGT | 0.327
TCGAGTAGGTTAGTCGGGGCACTCAGCCAACATA | 0.461
TCATATAGGTTATACAGGTGAAAGTCGGCATCTA | 1.48
